- target.or.test.system: Ybr033w (UniProt P38073)
- Sequence: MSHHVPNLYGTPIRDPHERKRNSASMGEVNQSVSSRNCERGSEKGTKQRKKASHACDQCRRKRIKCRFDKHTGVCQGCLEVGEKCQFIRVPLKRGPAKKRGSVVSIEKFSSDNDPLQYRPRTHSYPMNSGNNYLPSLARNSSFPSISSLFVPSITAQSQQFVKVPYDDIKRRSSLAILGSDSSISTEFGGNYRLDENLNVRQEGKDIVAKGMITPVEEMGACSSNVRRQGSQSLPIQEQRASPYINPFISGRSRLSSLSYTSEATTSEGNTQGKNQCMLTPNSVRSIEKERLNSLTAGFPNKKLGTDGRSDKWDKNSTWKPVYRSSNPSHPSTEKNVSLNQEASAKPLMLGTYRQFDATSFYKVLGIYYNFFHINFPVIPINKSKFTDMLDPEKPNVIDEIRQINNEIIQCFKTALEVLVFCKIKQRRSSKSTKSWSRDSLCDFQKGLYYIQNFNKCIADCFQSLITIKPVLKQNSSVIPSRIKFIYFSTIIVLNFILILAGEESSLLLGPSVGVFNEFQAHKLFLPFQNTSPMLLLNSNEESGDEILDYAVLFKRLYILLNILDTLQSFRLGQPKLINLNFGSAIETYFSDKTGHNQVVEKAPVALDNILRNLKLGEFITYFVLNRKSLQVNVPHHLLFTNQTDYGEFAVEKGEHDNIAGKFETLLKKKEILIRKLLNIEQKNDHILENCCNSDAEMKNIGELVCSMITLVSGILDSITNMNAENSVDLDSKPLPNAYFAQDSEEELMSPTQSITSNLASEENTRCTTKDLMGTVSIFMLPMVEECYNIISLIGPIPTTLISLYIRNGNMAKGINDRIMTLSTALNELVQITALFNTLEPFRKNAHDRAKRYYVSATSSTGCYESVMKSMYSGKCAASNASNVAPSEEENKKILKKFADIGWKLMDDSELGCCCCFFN
- test.description: PBM E-score (8-mer binding enrichment) (E-score (-0.5 to 0.5)); higher = stronger / more preferred TF binding
- measurement.context: protein concentration: 200 nM; construct: GST-full length
Whole data set: some 33,000 sequences, median “E-score (-0.5 to 0.5)” near -0.012, cut for the highest 2% near 0.29. Only a selection was taken, and the highest values are over-represented in it overall.
Class assignment keyed on PBM E-score, ranges low range: < 0.05; mid range: ≥ 0.05 and < 0.2; high range: ≥ 0.2

Task: Which category fits this record: "CGTTCTTA"
Result: low range

Task: And what about the sequence "ACCGCACT" ?
Result: low range

Task: What about this sequence? "CGATGCGC"
Result: low range

Task: Try this sequence next: "ATCGACAC"
Result: low range

Task: Another: "TAATAGTA"
Result: high range

Task: Can you handle "AGATAATA" next?
Result: high range

Task: Same for "CAACCACA"
Result: low range

Task: Please do the same for "GATTTCCC" as well.
Result: mid range

Task: Field entry: "ATAATAAG"
Result: mid range

Task: Repeat for the following sequence: "CATTACAA"
Result: mid range

Task: Now the same for "AATTTAAT"
Result: high range

Task: Next up: "ATAATGAA"
Result: high range

Task: Also, "AGATAATC" please.
Result: high range

Task: And what about the sequence "AACTTAAG" ?
Result: mid range

Task: Param item: "ACCGTGAC"
Result: low range

Task: For "AGTATTTG" then?
Result: mid range

Task: Ok, now "AGTATTTA"
Result: high range

Task: Subsequent entry: "ATCAATAA"
Result: high range

Task: What about this sequence? "CATTAAAG"
Result: mid range

Task: Here is the next sequence: "ATAGCTTG"
Result: low range

Task: Would you kindly repeat that for "AATTACAA" ?
Result: mid range

Task: // next record "CCATTTAG"
Result: low range

Task: Next sequence: "TATTACGA"
Result: high range

Task: Try this sequence next: "CACGGTTC"
Result: low range

Task: Note, next up: "AGATACAG"
Result: high range

Task: Same again, this time with "CCTCGTAA"
Result: low range

Task: Now give it for "AATTTTGC" too.
Result: mid range

Task: Could you do the same for "GGCATAAA" , please?
Result: mid range

Task: One more sequence: "AATTTAAC"
Result: high range

Task: Also, "GCGCGAGC" please.
Result: low range

Task: Can you handle "GGAGGGAC" next?
Result: low range

Task: Another sequence to check: "TATTGCAA"
Result: high range

Task: Entry to check: "CAATAGTA"
Result: mid range

Task: How about "CAATAATA" ?
Result: high range

Task: Then what about the sequence "AAGGCCTC" ?
Result: low range

Task: Here is the next sequence: "TGACTAAA"
Result: low range

Task: // same read-out, input: "AAAGAGCC"
Result: low range

Task: Next: "CACCGCTA"
Result: low range

Task: Thanks! And "CAACGTTG" ?
Result: mid range

Task: Next sequence up: "ATACGTAT"
Result: high range

Task: Then "AATAAAGT" ?
Result: high range

Task: Try "GTAAGTCA" next.
Result: low range

Task: And "CATTAAAA" ?
Result: high range

Task: Okay, and "ATGAACAC" ?
Result: mid range

Task: Next sequence: "CAACCTTA"
Result: mid range

Task: Please answer likewise for "AGTTTTTC"
Result: high range

Task: Likewise for "GGATCAAA" ?
Result: high range

Task: Lookup "TATTTAAA"
Result: high range

Task: Record: "AACAGTGA"
Result: low range

Task: Another sequence: "GTGCTGGA"
Result: low range

Task: What would you report for "GTACCCAC" ?
Result: low range

Task: Same question for "ATCTTTGG" please.
Result: mid range

Task: Would you kindly repeat that for "ATTTTTGG" ?
Result: low range

Task: Next record, please: "GAATTTCC"
Result: high range

Task: Consider next the sequence "AACTTAAA" in the same way.
Result: high range

Task: Entry "ATAATGAG" please
Result: mid range

Task: Note, next up: "AACAATTG"
Result: mid range

Task: Ok, now "GGTGGTAC"
Result: low range

Task: For "TGACCACA" then?
Result: low range

Task: Now the same for "AATTTACA"
Result: mid range

Task: Check "CTCGTCTA" too.
Result: low range

Task: Same read-out for "TGATCAAA" ?
Result: mid range

Task: Lookup "AGTATTTC"
Result: high range

Task: Then what about the sequence "ATAATAAC" ?
Result: mid range

Task: Okay, and "GGATCAAC" ?
Result: high range

Task: Let us now turn to "TATTTTAA"
Result: high range

Task: Lookup "AGTTTTTA"
Result: mid range

Task: Again, but for "AGAAAGTC"
Result: mid range

Task: // repeat for "AATTTACT" and report
Result: high range

Task: What do we get for "GATTTTCC" ?
Result: high range

Task: Consider next the sequence "TGAAGAAA" in the same way.
Result: mid range

Task: And then "AGTAGTAT" , what is it?
Result: mid range

Task: Queued: "AGATCAAA"
Result: mid range

Task: Moving on to the next sequence: "CGATACAA"
Result: mid range

Task: Next sequence up: "CTCAATAA"
Result: mid range

Task: Next entry: "ATCAATAG"
Result: mid range

Task: Same read-out for "CGAGGCAC" ?
Result: low range

Task: Next record, please: "AATTTAGT"
Result: high range

Task: Now the same for "AGTATTGC"
Result: mid range

Task: Please answer likewise for "GAGTTAAA"
Result: mid range

Task: Also "TAGTTAAA" , if possible.
Result: high range

Task: Ok, now "CCATAATA"
Result: high range

Task: Okay, and "CTGAGACC" ?
Result: low range

Task: Input "AAGCGCAT"
Result: low range

Task: And then "AATTTAAG" , what is it?
Result: high range

Task: Also, "GAATAGTA" please.
Result: mid range

Task: Another sequence to check: "ATTTACAC"
Result: low range

Task: Try this sequence next: "CCGGGCGA"
Result: low range

Where do the numbers come from? From the supplement of paper PMC3334620.
